meta.source: patent US20240254087A1

Assign Emax to each entry below.
Target: 5-HT2A (Homo sapiens, UniProt P28223)
Sequence (P28223 whole entry): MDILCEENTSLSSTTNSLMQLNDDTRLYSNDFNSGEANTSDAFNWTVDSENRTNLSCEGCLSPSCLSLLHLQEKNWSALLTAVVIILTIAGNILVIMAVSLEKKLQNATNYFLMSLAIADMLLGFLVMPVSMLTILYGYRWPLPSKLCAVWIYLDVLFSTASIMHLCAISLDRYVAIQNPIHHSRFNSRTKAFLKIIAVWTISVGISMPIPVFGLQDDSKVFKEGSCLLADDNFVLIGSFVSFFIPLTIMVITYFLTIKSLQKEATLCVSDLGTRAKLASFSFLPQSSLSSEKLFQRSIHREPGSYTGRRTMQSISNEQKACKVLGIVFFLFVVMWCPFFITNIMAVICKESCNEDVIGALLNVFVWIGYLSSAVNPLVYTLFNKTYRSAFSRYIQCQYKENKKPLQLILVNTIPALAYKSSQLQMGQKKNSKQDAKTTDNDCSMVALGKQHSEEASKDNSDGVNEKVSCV
Test: Ca2+ flux assay, 5-HT2A
Assay type: cell-based
Design: expressed in transfected cells
Conditions: read-out: 5-HT2A Emax % 5-HT, Ca2+ flux
Your answer is read as %, so omit the unit and give the number.

For the compound COc1ccc(OC)c(CNCCc2cc(OC)c([N+](=O)[O-])cc2OC)c1 [25N-NB-2,5-DiMeO (20)] , what Emax is on record?
72

For the compound COc1cc([N+](=O)[O-])c(OC)cc1CCNCc1ccccc1 [25N-NB (2)] , what Emax is on record?
86

For the compound COc1cc([N+](=O)[O-])c(OC)cc1CCN [2C-N (1), reference compound] , what Emax is on record?
100

For the compound COc1cc([N+](=O)[O-])c(OC)cc1CCNCc1ccccc1C [25N-NBMe (6)] , what Emax is on record?
85

###

Assign Ki to each entry below.
Your answer is read as nM, so omit the unit and give the number.

Query the reported Ki for 5-HT2B (Homo sapiens, UniProt P41595); item: COc1cc([N+](=O)[O-])c(OC)cc1CCNCc1cccc2ccccc12 [25N-N-1-Nap (16)]
1.17

Query the reported Ki for 5-HT2B (Homo sapiens, UniProt P41595); item: COc1cc([N+](=O)[O-])c(OC)cc1CCNCc1ccc(F)cc1 [25N-NB-4-F (25)]
85.1

Query the reported Ki for 5-HT2B (Homo sapiens, UniProt P41595); item: COc1cc([N+](=O)[O-])c(OC)cc1CCNCc1ccccc1-c1ccccc1 [25N-NBPh (17)]
1410

Query the reported Ki for 5-HT2B (Homo sapiens, UniProt P41595); item: COc1cc([N+](=O)[O-])c(OC)cc1CCNCc1cccc(C)c1O [25N-NB-2-OH-3-Me (18)]
0.776

###

Molecular target: 5-HT2A (Homo sapiens, UniProt P28223)
Assay: Competitive radioligand binding (NIMH PDSP)
Method: Method 1: Competitive binding experiments were performed by the National Institute of Mental Health Psychoactive Drug Screening Program (NIMH PDSP) using described methods or 5-HT2A experiments performed using [3H]-ketanserin displacement in human 5-HT2A expressing membranes. Target compounds were dissolved in DMSO and an initial screen performed to assess displacement of the radioligand from target receptors at a concentration of 10,000 nM. […]
Assign pKi to each entry below.
pKi here is simply -log10 of the concentration when that concentration is written in mol/L.

For the compound COc1cc([N+](=O)[O-])c(OC)cc1CCNCc1ccccc1I [25N-NBI (10)] , what pKi is on record?
8.27

For the compound COc1ccc(OC)c(CNCCc2cc(OC)c([N+](=O)[O-])cc2OC)c1 [25N-NB-2,5-DiMeO (20)] , what pKi is on record?
6.64

For the compound COc1cc([N+](=O)[O-])c(OC)cc1CCNCc1cccc2c1OC(F)(F)O2 [25N-NBMDF2 (13)] , what pKi is on record?
8.92

For the compound COc1cc([N+](=O)[O-])c(OC)cc1CCNCc1cccc2ccccc12 [25N-N-1-Nap (16)] , what pKi is on record?
8.94

For the compound COc1cc([N+](=O)[O-])c(OC)cc1CCNCc1ccccc1C(F)(F)F [25N-NBCF3 (14)] , what pKi is on record?
7.70

For the compound COc1cc([N+](=O)[O-])c(OC)cc1CCN [2C-N (1), reference compound] , what pKi is on record?
7.14

For the compound COc1cc([N+](=O)[O-])c(OC)cc1CCNCc1cccc(C)c1 [25N-NB-3-Me (22)] , what pKi is on record?
9.68

For the compound COc1cc([N+](=O)[O-])c(OC)cc1CCNCc1ccccc1OC [25N-NBOMe (4)] , what pKi is on record?
9.26

###

Biological target: 5-HT1A (Homo sapiens, UniProt P08908)
Sequence (P08908 1-422): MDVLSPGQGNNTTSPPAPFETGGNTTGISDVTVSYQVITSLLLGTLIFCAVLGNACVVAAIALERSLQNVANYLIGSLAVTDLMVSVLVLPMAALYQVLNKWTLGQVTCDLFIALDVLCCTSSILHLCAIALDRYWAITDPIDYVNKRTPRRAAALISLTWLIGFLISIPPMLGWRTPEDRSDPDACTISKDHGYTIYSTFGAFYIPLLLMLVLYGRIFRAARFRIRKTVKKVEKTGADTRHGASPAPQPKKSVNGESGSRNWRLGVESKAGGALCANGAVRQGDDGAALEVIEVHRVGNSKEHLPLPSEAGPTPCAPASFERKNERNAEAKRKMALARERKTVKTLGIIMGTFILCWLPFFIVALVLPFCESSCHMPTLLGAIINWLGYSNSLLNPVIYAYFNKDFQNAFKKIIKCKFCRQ
Assign Ki to each entry below.
Your answer is read as nM, so omit the unit and give the number.

For the molecule COc1cc([N+](=O)[O-])c(OC)cc1CCNCc1ccccc1C(F)(F)F [25N-NBCF3 (14)] , what Ki is on record?
1070

For the molecule COc1cc([N+](=O)[O-])c(OC)cc1CCNCc1cccc(C)c1O [25N-NB-2-OH-3-Me (18)] , what Ki is on record?
186

For the molecule COc1cc([N+](=O)[O-])c(OC)cc1CCNCc1ccccc1I [25N-NBI (10)] , what Ki is on record?
1000

For the molecule COc1cc([N+](=O)[O-])c(OC)cc1CCNCc1cccc(O)c1 [25N-NB-3-OH (21)] , what Ki is on record?
1860

For the molecule COc1cc([N+](=O)[O-])c(OC)cc1CCN [2C-N (1), reference compound] , what Ki is on record?
1450

For the molecule COc1cc([N+](=O)[O-])c(OC)cc1CCNCc1ccccc1OC [25N-NBOMe (4)] , what Ki is on record?
1860

For the molecule COc1cc([N+](=O)[O-])c(OC)cc1CCNCc1ccccc1[N+](=O)[O-] [25N-NBNO2 (15)] , what Ki is on record?
1950

###

Target: 5-HT2C (Homo sapiens, UniProt P28335)
Sequence (P28335 33-458): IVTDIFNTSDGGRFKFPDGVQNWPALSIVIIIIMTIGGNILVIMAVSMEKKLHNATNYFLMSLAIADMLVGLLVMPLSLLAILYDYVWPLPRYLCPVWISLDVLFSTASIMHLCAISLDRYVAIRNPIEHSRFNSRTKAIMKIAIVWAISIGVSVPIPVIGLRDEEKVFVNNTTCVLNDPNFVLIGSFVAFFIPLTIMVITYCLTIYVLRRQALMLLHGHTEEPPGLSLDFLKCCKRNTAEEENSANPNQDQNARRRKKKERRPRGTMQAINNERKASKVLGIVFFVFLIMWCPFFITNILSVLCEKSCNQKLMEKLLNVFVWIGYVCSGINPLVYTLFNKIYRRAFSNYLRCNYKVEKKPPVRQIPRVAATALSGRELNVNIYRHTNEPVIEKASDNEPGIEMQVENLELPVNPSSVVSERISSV
Test: Ca2+ flux assay, 5-HT2C
Format: cell-based
Set-up: expressed in transfected cells
Details: read-out: 5-HT2C Emax % 5-HT
PROPERTY: Emax (%)
Your answer is read as %, so omit the unit and give the number.

For the compound COc1cc([N+](=O)[O-])c(OC)cc1CCNCc1cccc(F)c1OC [25N-NB-2-MeO-3-F (19)] , what Emax is on record?
77

For the compound COc1cc([N+](=O)[O-])c(OC)cc1CCNCc1ccccc1[N+](=O)[O-] [25N-NBNO2 (15)] , what Emax is on record?
36

For the compound COc1cc([N+](=O)[O-])c(OC)cc1CCN [2C-N (1), reference compound] , what Emax is on record?
69

For the compound COc1cc([N+](=O)[O-])c(OC)cc1CCNCc1ccccc1 [25N-NB (2)] , what Emax is on record?
75

For the compound COc1cc([N+](=O)[O-])c(OC)cc1CCNCc1ccccc1I [25N-NBI (10)] , what Emax is on record?
45

For the compound COc1cc([N+](=O)[O-])c(OC)cc1CCNCc1cccc(F)c1 [25N-NB-3-F (24)] , what Emax is on record?
54

For the compound COc1cc([N+](=O)[O-])c(OC)cc1CCNCc1ccccc1Br [25N-NBBr (9)] , what Emax is on record?
78

###

Target: 5-HT2A (Homo sapiens, UniProt P28223)
Experiment: cell-based
Set-up: expressed in transfected cells; host or cells: HEK293T, transient
Conditions: BRET, mean ± SEM; read-out: 5-HT2A β-arrestin recruitment pEC50 (converted)
Assign EC50 to each entry below.
Your answer is read as nM, so omit the unit and give the number.

For the compound COc1cc(Br)cc(OC)c1CCNCc1cccc(C)c1O [(42)] , what EC50 is on record?
0.513

For the compound COc1cc(Br)c(Br)c(OC)c1CCNCc1cccc(C)c1O [(45)] , what EC50 is on record?
1.32

For the compound COc1cc(Br)cc(OC)c1CCNCc1cccc2ccccc12 [(32)] , what EC50 is on record?
1.05

For the compound COc1cc(OC)c(OC)cc1CCNCc1cccc(-c2ccccc2)c1 [(62)] , what EC50 is on record?
56.2

For the compound COc1cc2c(cc1CCNCc1cccc3ccccc13)OCO2 [(39)] , what EC50 is on record?
5.89

For the compound COc1cc(Cl)ccc1CC(C)NCc1cccc(C)c1O (stereo not shown) [(46)] , what EC50 is on record?
1.12

For the compound COc1cc(OC)c(OC)cc1CCNCc1cccc(C)c1C [(50)] , what EC50 is on record?
5.75

For the compound COc1cc(OC)c(OC)cc1CCNCc1ccccc1-c1ccc(O)cc1 [(64)] , what EC50 is on record?
11.7

For the compound COc1cc(OC)c(OC)cc1CCNCc1cccc(Br)c1O [(48)] , what EC50 is on record?
8.13

For the compound COc1cc(OC)c(OC)cc1CCNCc1ccccc1OCc1ccccc1 [(61)] , what EC50 is on record?
3.31

For the compound COc1cc(OC)c(OC)cc1CCNCc1ccccc1-c1ccco1 [(58)] , what EC50 is on record?
56.2

For the compound COc1cc(CCNC2CCc3cccc(O)c32)c(OC)cc1C (stereo not shown) [(84)] , what EC50 is on record?
3.47

For the compound COc1cc(CCNC2Cc3ccccc3C2)c(OC)cc1C [(85)] , what EC50 is on record?
5.13
